protocol.details: Monkey PK study, plasma
Assay type: in vivo, cynomolgus monkey
experimental.parameters: male, cynomolgus, cynomolgus monkey; monkey plasma, single oral AT-527 30 mg/kg; read-out: AUC0-last

- chem.smiles: "C[C@@]1(F)[C@H](O)[C@@H](CO)O[C@H]1n1cnc2c(=O)[nH]c(N)nc21"
  measurement.unit: "µM·h"
  AUC(0-t): 5.42

###

protocol.details: Monkey PK study, plasma
Type: in vivo, cynomolgus monkey
experimental.parameters: male, cynomolgus, cynomolgus monkey, in vivo, po, 30 mg/kg
Here, each record is paired with measured Cmax data.

- compound: "CNc1nc(N)nc2c1ncn2[C@@H]1O[C@H](CO[P@](=O)(O)N[C@@H](C)C(=O)O)[C@@H](O)[C@@]1(C)F [M1]"
  Cmax: "940 nM"
- compound: "CNc1nc(N)nc2c1ncn2[C@@H]1O[C@H](CO)[C@@H](O)[C@@]1(C)F [M4]"
  Cmax: "670 nM"
- compound: "C[C@@]1(F)[C@H](O)[C@@H](CO)O[C@H]1n1cnc2c(=O)[nH]c(N)nc21 [AT-273]"
  Cmax: "140 nM"

###

Here, each record is paired with measured MRT last data.
protocol.details: Monkey PK study, plasma
Type: in vivo, cynomolgus monkey
experimental.parameters: male, cynomolgus, cynomolgus monkey, in vivo, po, 30 mg/kg
measure.name: MRT last (h)

- compound: "CNc1nc(N)nc2c1ncn2[C@@H]1O[C@H](CO)[C@@H](O)[C@@]1(C)F [M4]"
  measurement.unit: "h"
  numeric.result: 22.4
- compound: "C[C@@]1(F)[C@H](O)[C@@H](CO)O[C@H]1n1cnc2c(=O)[nH]c(N)nc21 [AT-273]"
  measurement.unit: "h"
  numeric.result: 26.9
- compound: "CNc1nc(N)nc2c1ncn2[C@@H]1O[C@H](CO[P@](=O)(O)N[C@@H](C)C(=O)O)[C@@H](O)[C@@]1(C)F [M1]"
  measurement.unit: "h"
  numeric.result: 7.06

###

protocol.details: Monkey PK study, liver and heart tissue levels
Type: in vivo, cynomolgus monkey
experimental.parameters: monkey, AT-527 30 mg/kg oral, 4 h
Marks after values point to notes of the source that are not given here.
Here, each record is paired with measured Liver/Heart Ratio data.
measure.name: Liver/Heart Ratio

- compound: "C[C@@]1(F)[C@H](O)[C@@H](CO)O[C@H]1n1cnc2c(=O)[nH]c(N)nc21 [AT-273]"
  result: 3.0
- compound: "C[C@@]1(F)[C@H](O)[C@@H](COP(=O)(O)O)O[C@H]1n1cnc2c(=O)[nH]c(N)nc21 [M3]"
  result: "11^a"
- compound: "CNc1nc(N)nc2c1ncn2[C@@H]1O[C@H](CO[P@](=O)(O)N[C@@H](C)C(=O)O)[C@@H](O)[C@@]1(C)F [M1]"
  result: 3.7
- compound: "C[C@@]1(F)[C@H](O)[C@@H](COP(=O)(O)OP(=O)(O)OP(=O)(O)O)O[C@H]1n1cnc2c(=O)[nH]c(N)nc21 [AT-9010]"
  result: "11^b"
- compound: "CNc1nc(N)nc2c1ncn2[C@@H]1O[C@H](COP(=O)(O)O)[C@@H](O)[C@@]1(C)F [M2]"
  result: "19^a"

###

protocol.details: Monkey PK study, liver and heart tissue levels
Assay type: in vivo, cynomolgus monkey
experimental.parameters: monkey, AT-527 100 mg/kg oral; footnoted values extrapolated below LLOQ
Here, each record is paired with measured Mean Concentration at 4 hr Postdose, Heart data.
measure.name: Mean Concentration at 4 hr Postdose, Heart

- chem.smiles: "C[C@@]1(F)[C@H](O)[C@@H](COP(=O)(O)O)O[C@H]1n1cnc2c(=O)[nH]c(N)nc21"
  result: "7.9^a pmol/g"
- chem.smiles: "C[C@@]1(F)[C@H](O)[C@@H](COP(=O)(O)OP(=O)(O)OP(=O)(O)O)O[C@H]1n1cnc2c(=O)[nH]c(N)nc21"
  result: "61.8^b pmol/g"
- chem.smiles: "CNc1nc(N)nc2c1ncn2[C@@H]1O[C@H](COP(=O)(O)O)[C@@H](O)[C@@]1(C)F"
  result: "9.9^a pmol/g"
- chem.smiles: "C[C@@]1(F)[C@H](O)[C@@H](CO)O[C@H]1n1cnc2c(=O)[nH]c(N)nc21"
  result: "229 pmol/g"
